From: patent US12605459B2

system: SK-BR-3, Calu-3 and NCI-H1975 cells; experiment: In vitro cytotoxicity assay, statements pooled over several tested lines (SK-BR-3, Calu-3, NCI-H1975); assay type: cell-based, human; conditions: all tested cells; units printed with the values (pM, nM)
MEASUREMENT TYPE: IC50

Ask: Give the measured IC50 of CC[C@@]1(O)C(=O)OCc2c1cc1n(c2=O)Cc2c-1nc1cc(F)c(C)c3c1c2[C@@H](NC(=O)CO)CC3 [Dxd] .
Result: 787 to 11800 pM

---

Give IC50 for every item shown.
system: HCT-15; experiment: cells; assay type: cell-based; conditions: Homo sapiens, HCT-15, read-out: IC50 (nM) −v
Please state the figure in nM; there is no need to write the unit.

Ask: Give the measured IC50 of CC[C@@]1(O)C(=O)OCc2c1cc1n(c2=O)Cc2c-1nc1cc(F)c(C)c3c1c2[C@@H](NC(=O)COCNC(=O)CN)CC3 [P3] .
Result: 44.9

Ask: Give the measured IC50 of CC[C@@]1(O)C(=O)OCc2c1cc1n(c2=O)Cc2c-1nc1cc(F)c(C)c3c1c2[C@@H](NC(=O)CO)CC3 [P2, Dxd] .
Result: 7
